Just for reference, the supplement of paper PMC9170038 is where these values come from.

Entries annotated with measured apparent KD of K4 kissing-loop reporter
- System: K4 kissing-loop RNA reporter;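 also: bound reporter read as fluorescence of individual clusters on recovered sequencing chips by microscopy, with normalized cluster intensities fitted with a binding model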
- Assay Remarks: apparent KD of K4 kissing-loop reporter; higher = weaker reporter binding
- Experimental Setup: Eterna round: R107; input ligand: tryptophan 2.4 mM
Write down the numeric answer in nM and omit the unit.

[Q] If you can, please state the reported apparent KD of K4 kissing-loop reporter value of AGGAUCACGUCAGUGAUGUUGACAAGAGAUACCAGAGACGAAAGUCUCCCUUGGCAGCUCAUUGUGAUCCGUGACAAAGGUCACA [Omei KL hio A SS C v2] .
[A] 186

[Q] Record: AAGCAGUCACUCGAAUCCAUCGAAGAUGGGCGAGGACCGGUACGGCCGCCACUCGGAGUGAUGUUCCGCAGACUGCAAAAUAAAA
[A] 478

[Q] Record: GUUACGCAUGGAAGGAGCGCUCUCCGGCUUAUUAACACAGUGAUGUUGUGAUUUUGCCGAAAGCAGGUAGGUCGCCAUGUGUAAC [Ex Arginine B K4 11]
[A] 451

[Q] Record: GCAGUGAUGUUGCGGAUGUACAGUGGCGUGCGAGGACCGGUACGGCCGCCACUCGUACAGAGCAAGCUAAUACAUCGAUAGGUGA [whbob_SS_Tryp_A_m4]
[A] 240

[Q] Record: UGAUAGGACAGAAGGAGCGGGAGUGAUGUUCCCAAAAUGGAAGGUCGACAAAGUCGACCCUCCCAGGUAGGUCGCUGUCCUAUCU [ArgBX 6 #SwitchBubble #StaticStem]
[A] 86.7

Others:
[Q] If you can, please state the reported apparent KD of K4 kissing-loop reporter value of AAAAUUGCGGUCGAAAGAACUUCUUGCAUACGAGGACCGGUACGGCCGCCACUCGAGUCAAGUGAUGUUUGAUUUUCUAUUAUUA [JR_ExcTryptoA_Sub013] .
[A] 153

[Q] Record: UGGCGGACGAUCCGGAGUGAUGUUCCGGAUACCAGCAGAAGAGCCUGCCCUUGGCAGCCGUGCGACGCUGGGAGAGUCCGGCGUC [Requered]
[A] 99.7

[Q] Record: GGGAGAAGUGCGGCCGCCACUGAGAAAGAAGAAGAAUAUAGUGAUGUUAUAUAGGAAAGGAAGAACAGGACCGGGCAUAAGAGGG [SSTryptB.A]
[A] 99.1

[Q] Record: AUGUGGAGCGACGUUUAGAGAAACCGGGAAGGAGCGCGGAUAACCGCAGGUAGGUCGCCUGGUUGCCAGUGAUGUUGGCGACGUG [Exclusion Arg A GF 25]
[A] 138

[Q] Record: AGUGAUGUGGGAAGGAGCGGUAUAUGAAUUCAGUGAUGUUGAAGUGAUGCUGUAAUGAUGUGCCAGGUAGGUCGCCUAGAUGUUA [KL-XARG B26]
[A] 187

[Q] Record: CCCGUACCAGUGAUGUUGGUAUGGUCUGAUACCAGUCUGUAGUCGGGCCCUUGGCAGCAGACCCUUGCCAAGGUGACGACUCCGG [Qu]
[A] 132

[Q] Record: UCUGUUUCGAUGGAUACCAGUCGGCGAAUCACAGCUAUUAGCCUAGUGAUGUUAGGAUCGGACCCUUGGCAGCCAAUGGAUGCGG [theeternabot_sameState_KL_Theo_B_14]
[A] 732
